The compounds below have reported pIC50 for 5-HT2 receptors in the rat frontal cortex (Rattus norvegicus).
pIC50: −log10 of the molar value.

[
  {
    "compound": "CN1CCc2c(-c3ccccc3)c3ccccc3n2CC1",
    "pIC50": "8.00 to 9.00"
  },
  {
    "compound": "C=CCN1CCc2c(-c3ccccc3)c3ccccc3n2CC1",
    "pIC50": "8.00 to 9.00"
  },
  {
    "compound": "CN(C)CCC=C1c2ccccc2CCc2ccccc21 [amitriptyline, reference compound]",
    "pIC50": 7.82
  },
  {
    "compound": "c1ccc(-c2c3n(c4ccccc24)CCN(CC2CC2)CC3)cc1",
    "pIC50": "8.00 to 9.00"
  },
  {
    "compound": "c1ccc(-c2c3n(c4ccccc24)CCNCC3)cc1",
    "pIC50": "8.00 to 9.00"
  }
]
